Below is a list of entries, each paired with its recorded Vd value.
Assay: Volume of distribution at steady state in ICR mouse at 5 mg/kg, iv by LC-MS/MS analysis
Format: ADME, organism-based
Conditions: in vivo, read-out: Vdss

# smiles.structure, Vd, L/kg
measured = [
    ("CCCN(CCCCNC(=O)c1ccc(-c2ccccn2)cc1)C[C@@H]1C[C@H]1c1cccc(Cl)c1Cl.Cl", 4.11),
    ("CCCN(CCCCNC(=O)c1ccc2ccccc2c1)C[C@@H]1C[C@H]1c1cccc(Cl)c1Cl.Cl", 20.8),
    ("CCCN(CCCCNC(=O)c1ccc(-c2ccccn2)cc1)C[C@@H]1C[C@H]1c1cc(F)ccc1OC.Cl", 3.13),
    ("CCCN(CCCCNC(=O)c1cc2ccccc2[nH]1)C[C@@H]1C[C@H]1c1cccc(Cl)c1Cl.Cl", 23.8),
]
